tested on: Leishmania infantum; test: Antileishmanial activity against Leishmania infantum MHOM/TN/80/IPT1/LEM235 intracellular amastigotes; format: functional, organism-based
pIC50: −log10 of the molar value.
assay endpoint: pIC50

Consider the following illustrative entries.
C[N+](C)(C)[C@@H]1CCCC[C@H]1OP(=O)([O-])OCCCCCCCCCCC=C1CCCCC1 (relative stereo): 5.96
C[N+]1(CCOP(=O)([O-])OCCCCC=C2CCCCCCCCCCCCCC2)CCCCC1: 5.39
C[N+]1(CCOP(=O)([O-])OCCCCCCCCCCC=C2CCCCCCCCCCCCCC2)CCCCC1: 5.44

a. C[N+]1(CCOP(=O)([O-])OCCCCC=C2CCCCCCCCCCCCCC2)CCOCC1
b. C[N+]1(CCOP(=O)([O-])OCCCCCC2CCCCCCCCCCCCCC2)CCCCC1
c. C[N+](C)(C)CCOP(=O)([O-])OCCCCCCCCCCC=C1CCCCCCCCC1
Rank the 3 molecules: largest pIC50 first, smallest last. Please express your ranking as an ordered list of the labels.
c, b, a

---

assay: Toxicity in human erythrocytes assessed as hemolysis at 500 uM; assay type: cell-based, Erythrocyte; settings: read-out: Activity
assay endpoint: hemolysis at 500 µM (%)
Hi! Could you send only the number? It should be in %, unit omitted.

Solved cases below.
C[N+](C)(C)CCOP(=O)([O-])OCCCCC=C1CCCCCCCCC1: 41.8
C[N+](C)(C)CCOP(=O)([O-])OCCCCCCCCCCC=C1CCCCCCCCC1: 43
C[N+](C)(C)CCOP(=O)([O-])OCCCCCC1CCCCCCCCCCCCCC1: 100
C[N+](C)(C)CCOP(=O)([O-])OCCCCCCCCCCC=C1CCCCCCCCCCCCCC1: 100
C[N+](C)(C)CC#CCOP(=O)([O-])OCCCCCCCCCCC=C1C2CC3CC(C2)CC1C3: 100
C[N+](C)(C)CCOP(=O)([O-])OCCCCCC1CCCCCCCCC1: 100
C[N+](C)(C)[C@@H]1CCC[C@H]1OP(=O)([O-])OCCCCCCCCCCC=C1C2CC3CC(C2)CC1C3 (relative stereo): 100
C[N+]1(CCOP(=O)([O-])OCCCCC=C2CCCCCCCCCCCCCC2)CCCCC1: 100

Attention now turns to another entry.
Param item = "C[N+]1(CCOP(=O)([O-])OCCCCCCCCCCC=C2CCCCCCCCCCCCCC2)CCCCC1" ; retrieve measured hemolysis at 500 µM.
51.4

---

test system: Leishmania infantum; experiment: Antileishmanial activity against Leishmania infantum MHOM/TN/80/IPT1/LEM235 intracellular amastigotes; assay type: functional, organism-based
pIC50: −log10 of the molar value.
assay endpoint: pIC50

Examples with answers:
C[N+](C)(C)CCOP(=O)([O-])OCCCCCC1CCCCCCCCC1: 5.66
CCCCCCCCCCCCCCCCOP(=O)([O-])O[C@@H]1CCCC[C@H]1[N+](C)(C)C (relative stereo): 5.77
C[N+](C)(C)CCOP(=O)([O-])OCCCCC=C1CCCCCCCCCCCCCC1: 5.42
C[N+]1(C)C2CCC1CC(=CCOP(=O)([O-])OCCCCCCCCCCC=C1C3CC4CC(C3)CC1C4)C2: 5.04
C[N+](C)(C)[C@@H]1CCC[C@H]1OP(=O)([O-])OCCCCCCCCCCC=C1C2CC3CC(C2)CC1C3 (relative stereo): 6.52
C[N+](C)(C)[C@H]1CCC[C@@H]1OP(=O)([O-])OCCCCC=C1CCCCCCCCCCCCCC1 (relative stereo): 6.70
C[N+](C)(C)[C@@H]1CCC[C@H]1OP(=O)([O-])OCCCCCCCCCCC=C1CCCCC1 (relative stereo): 5.96
C[N+](C)(C)CCOP(=O)([O-])OCCCCCCCCCCC=C1CCCCCCCCCCCCCC1: 6.12

a. CCCCCCCCCCCCCCCCOP(=O)([O-])OCC[N+](C)(C)C
b. C[N+](C)(C)CCOP(=O)([O-])OCCCCC=C1CCCCCCCCC1
Please tell me which of the two, a or b , has the higher reported pIC50 value. Record your answer as the label of the chosen record.
b

1. C[N+]1(CCOP(=O)([O-])OCCCCCCCCCCC=C2CCCCCCCCCCCCCC2)CCOCC1
2. C[N+]1(CCOP(=O)([O-])OCCCCCC2CCCCCCCCCCCCCC2)CCOCC1
3. C[N+](C)(C)[C@H]1CCCC[C@@H]1OP(=O)([O-])OCCCCC=C1CCCCCCCCCCCCCC1 (relative stereo)
4. C[N+](C)(C)CC#CCOP(=O)([O-])OCCCCCCCCCCC=C1C2CC3CC(C2)CC1C3
5. CCCCCCCCCCCCCCCCOP(=O)([O-])O[C@@H]1CCC[C@H]1[N+](C)(C)C (relative stereo)
Please rank these compounds by pIC50 in descending order. Reply: labels, ordered per the request.
2, 1, 3, 5, 4
